Where do these numbers come from? They come from ChEMBL document CHEMBL1201862.

Assign GI50 to each entry below.
# Test system: MDA-MB-435
# run.description: NCI tumour cell line growth inhibition, 48 h
The source made the active and inactive calls. Cut-off read from the data, not from the text of the source: active = GI50 up to about 1.1 µM and inactive = higher.

Some solved entries appear below for comparison.
{"compound": "OC1CCC(COC(c2ccccc2)(c2ccccc2)c2ccccc2)O1 (centres undefined)", "GI50": "21.5 µM (inactive)"}
{"compound": "C[N+](C)(C)c1ccc(C(N)C(=O)O)cc1 (centres undefined)", "GI50": "> 100 µM (inactive)"}

Record GI50 per entry; entries follow.
1. CC(=O)Oc1c(N2CCCCC2)c(C(=O)c2ccccc2)c(O)c2ccn(N(C)C)c12
2. COc1cc(C2SCC(=O)N2c2ccc(Cl)c(Cl)c2)cc(OC)c1OC (centres undefined)

Found:
1: 19.7 µM (inactive); 2: 11.1 µM (inactive)

---

# System: A549
# run.description: NCI tumour cell line growth inhibition, 48 h
Active and inactive are the calls of the source. No stated cut-off is given here; in the data, active = GI50 up to about 1.1 µM and inactive = higher.
I'd appreciate it if you could supply GI50 values for the items below.

{"compound": "CCOC(=O)c1c(NS(=O)(=O)c2ccc(Br)cc2)sc2c1CCCC2", "measured.result": "7.78 µM (inactive)"}
{"compound": "CN(C)CCNC(=O)Cn1ccc(=O)c2cc([N+](=O)[O-])ccc21", "measured.result": "> 100 µM (inactive)"}

Lookup: // query GI50 value for entry COC(=O)/C(=N\NC(N)=O)C(C(=O)C(=O)Nc1ccccc1OC)c1nc2ccc([N+](=O)[O-])cc2nc1O (stereo not drawn)
Found: > 100 µM (inactive)

---

# Tested on: ACHN
# run.description: NCI tumour cell line growth inhibition, 48 h
Active and inactive are the calls of the source. No stated cut-off is given here; in the data, active = GI50 up to about 1.1 µM and inactive = higher.
measurement.type: GI50

Examples from the recorded data:
{"compound": "COC(=O)C1=C(C)C(=O)[C@]23C(CCCC[C@H]12)C(=O)[C@H](C(=O)OC)C3C (some centres undefined)", "measured.target": "ACHN", "GI50": "> 100 µM (inactive)"}
{"compound": "O=C(CN(c1ccccc1)c1ccccc1)N1c2ccccc2C2C=CC=CC21 (centres undefined)", "measured.target": "ACHN", "GI50": "24 µM (inactive)"}
{"compound": "O=C1C=C(NCCc2ccc(O)cc2)C(=O)C=C1NCCc1ccc(O)cc1", "measured.target": "ACHN", "GI50": "> 100 µM (inactive)"}

Next compound, GI50 to be filled in.
Lookup: Dear colleague, I am looking for the recorded GI50 of the following compound: Oc1ccc(Br)cc1/C=N/c1cccc(C(F)(F)F)c1
Found: > 100 µM (inactive)

---

Hi there, I'd appreciate the recorded GI50 for every entry that follows.
# Tested on: Malme-3M
# run.description: NCI tumour cell line growth inhibition, 48 h
Calls of active or inactive are those of the source. Rule as the data show it: active = GI50 up to about 1.1 µM and inactive = higher.

Illustrative cases are given below, each with its answer.
{"compound": "COC(=O)c1ccccc1NC(=O)C(=O)Cc1nc2c3c(ccc2nc1O)C(=O)c1ccccc1C3=O", "measured.target": "Malme-3M", "measured.result": "8.26 µM (inactive)"}
{"compound": "COc1ccc2c(C(=O)c3cn(CCN4CCOCC4)c4ccccc34)cccc2c1", "measured.target": "Malme-3M", "measured.result": "15.8 µM (inactive)"}
{"compound": "CCOC(=O)/C(=C\\NC(=S)Nc1ccc(Cl)c(Cl)c1)C(=O)c1ccccc1", "measured.target": "Malme-3M", "measured.result": "63.5 µM (inactive)"}

Need GI50 for each of these molecules.
1. [N-]=[N+]=Nc1c(Br)c(=O)[nH]c(=O)n1COCCO
2. CCOc1ccccc1NC(=O)C(=O)CC(=O)c1c(C)[n+]([O-])c2ccccc2[n+]1[O-]
3. O=[N+]([O-])c1nc(-c2ccccn2)[nH]c1[N+](=O)[O-]
4. CN(C)S(=O)(=O)c1ccc(Nc2ccc(O)c3c2C(=O)c2c([N+](=O)[O-])ccc(O)c2C3=O)cc1
5. Cc1oc(N)c(S(=O)(=O)c2ccc(Cl)cc2)c1C
6. CSC(SC)=C(C(=O)c1ccc(Cl)cc1)n1c(=O)sc2cc(Br)ccc21

Found:
1: > 100 µM (inactive); 2: > 100 µM (inactive); 3: 57.4 µM (inactive); 4: 57.4 µM (inactive); 5: 29.9 µM (inactive); 6: > 100 µM (inactive)

---

# Tested on: CCRF-CEM
# run.description: NCI tumour cell line growth inhibition, 48 h
Activity calls are given as the source filed them. Rule as the data show it: active = GI50 up to about 1.1 µM and inactive = higher.
I'd be grateful if you could share measured GI50 for these entries.

{"compound": "COc1ccc2c(C(=O)c3cn(CCN4CCOCC4)c4ccccc34)cccc2c1", "measured.target": "CCRF-CEM", "measured.result": "4.45 µM (inactive)"}

The following compounds each have a reported value; give each one's GI50.
1. CC1=NN(C(=O)c2ccc(Cl)cc2)C(=O)/C1=C/c1ccccc1O
2. C/C(=N\Nc1ccc([N+](=O)[O-])cc1)C(=O)N(C)Nc1ccccc1
3. CCOC(=O)Oc1cc2c(ccn2C)c2c1c1ccccc1n2C(=O)OCC
4. COCc1nc2c(OC)c(-c3nc4ccc(N5CCN(C)CC5)nc4[nH]3)cc(OC)c2[nH]1
5. C=CCc1c(O)c2ccccc2[nH]c1=O
6. COc1cc(/C=C2\NC(=O)N(/C=C3\C(=O)Oc4ccccc4C3=O)C2=O)ccc1O
7. CCC1CCc2c(c(=O)oc3c2cc(OC)c2cccc(OC)c23)C1 (stereo unspecified)

Found:
["> 100 µM (inactive)", "> 100 µM (inactive)", "> 100 µM (inactive)", "21.2 µM (inactive)", "> 100 µM (inactive)", "32.7 µM (inactive)", "28.3 µM (inactive)"]

---

Provide the reported GI50 of each item.
# System: 786-0
# run.description: NCI tumour cell line growth inhibition, 48 h
Active and inactive are the calls of the source. No stated cut-off is given here; in the data, active = GI50 up to about 1.1 µM and inactive = higher.

Some solved cases for reference:
{"compound": "CCOC(=O)/C(=C\\NC(=S)Nc1ccc(Cl)c(Cl)c1)C(=O)c1ccccc1", "GI50": "58.6 µM (inactive)"}
{"compound": "Cc1nn(C(=O)c2ccc(Cl)cc2)c2c1C(/C=C/c1ccccc1)SC(=N)N2 (stereo unspecified)", "GI50": "> 10 µM (inactive)"}
{"compound": "Cc1cc(Cl)cc2c1NC(=O)C2(O)CC(=O)c1ccco1 (stereo unspecified)", "GI50": "54.7 µM (inactive)"}
{"compound": "COC(=O)c1ccc(/C=C/C2=CC(=O)C=CC2=O)cc1", "GI50": "11.4 µM (inactive)"}
{"compound": "COC(=O)c1c(C)nc(C)c(N=O)c1-c1ccccc1C(F)(F)F", "GI50": "17.6 µM (inactive)"}

Lookup: Please give the measured GI50 for this compound: NC(CCC(=O)NC(CSSCCCCS(=O)O)C(=O)NCC(=O)O)C(=O)O (stereo unspecified)
Found: > 100 µM (inactive)

---

# Test system: NCI-H23
# run.description: NCI tumour cell line growth inhibition, 48 h
Activity calls are given as the source filed them. No stated cut-off is given here; in the data, active = GI50 up to about 1.1 µM and inactive = higher.
Assign a class; possible classes are active, inactive

Solved cases (5 shown):
{"molecule": "COc1ccc2c(C(=O)c3cn(CCN4CCOCC4)c4ccccc34)cccc2c1", "qualitative.label": "inactive"}
{"molecule": "COc1cc(C2=C(C#N)C(N)OC3=C2COc2ccccc23)cc(OC)c1OC (stereo not drawn)", "qualitative.label": "inactive"}
{"molecule": "NS(=O)(=O)c1ccc(/N=N/c2nc3nc(O)nc(O)c3[nH]2)cc1", "qualitative.label": "inactive"}
{"molecule": "COC(=O)C1=CC2OC1(C)C1(CC1)C2=O (stereo not drawn)", "qualitative.label": "inactive"}
{"molecule": "CCCO/N=[N+](\\[O-])N(CC)CC", "qualitative.label": "inactive"}

Lookup: Call for entry CC1C=C(CCCCCCCCCCCC[C@@H](O)[C@@H]2CC[C@@H]([C@@H]3CC[C@@H](C(O)CCCCCCCCCCCCC4=C[C@H](C)OC4=O)O3)O2)C(=O)O1 (stereo partly drawn) :
Found: active

Lookup: And for C[N+](C)(CCCCCC[N+](C)(C)CCCN1C(=O)c2cccc3cccc(c23)C1=O)CCCN1C(=O)c2cccc3cccc(c23)C1=O ?
Found: inactive

Lookup: Queued: CN1CC[C@]2(c3cccc(O)c3)CC(=O)/C(=C/c3ccccc3)[C@@H]1C2.[O-][Cl+3]([O-])([O-])O
Found: inactive

Lookup: Can you handle CCN1CC(C)Cn2c(=O)[nH]c3cc(Br)cc1c32 (stereo not drawn) next?
Found: inactive

Lookup: Input Oc1[nH]c(Nc2ccc(F)c(Cl)c2)nc2ncnc1-2
Found: inactive

Lookup: Also COC(=O)c1ccc(OCc2ccc3nc(-c4ccccc4)c(Cl)nc3c2)cc1 , if possible.
Found: inactive

Lookup: # iterate: O=C1C=C(NCCc2cc(Br)c(O)c(Br)c2)C(=O)c2[nH]cnc21
Found: inactive

Lookup: Next entry: COc1ccc(-c2nc3ccc(C)cc3o2)c(OC)c1
Found: inactive
